Test system: HeLa Kyoto
Test: melting temperature (median over replicates), in situ; higher = more thermally stable
Test conditions: cell cycle stage: mitosis
Measurement type: melting temperature (°C)

MALAARLWRLLPFRRGAAPGSRLPAGTSGSRGHCGPCRFRGFEVMGNPGTFKRGLLLSALSYLGFETYQVISQAAVVHATAKVEEILEQADYLYESGETEKLYQLLTQYKESEDAELLWRLARASRDVAQLSRTSEEEKKLLVYEALEYAKRALEKNESSFASHKWYAICLSDVGDYEGIKAKIANAYIIKEHFEKAIELNPKDATSIHLMGIWCYTFAEMPWYQRRIAKMLFATPPSSTYEKALGYFHRAEQVDPNFYSKNLLLLGKTYLKLHNKKLAAFWLMKAKDYPAHTEEDKQIQTEAAQLLTSFSEKN [RMDN1]; 52.9
MPEAPPLLLAAVLLGLVLLVVLLLLLRHWGWGLCLIGWNEFILQPIHNLLMGDTKEQRILNHVLQHAEPGNAQSVLEAIDTYCEQKEWAMNVGDKKGKIVDAVIQEHQPSVLLELGAYCGYSAVRMARLLSPGARLITIEINPDCAAITQRMVDFAGVKDKVTLVVGASQDIIPQLKKKYDVDTLDMVFLDHWKDRYLPDTLLLEECGLLRKGTVLLADNVICPGAPDFLAHVRGSSCFECTHYQSFLEYREVVDGLEKAIYKGPGSEAGP [COMT]; 54.2
MSSRKQGSQPRGQQSAEEENFKKPTRSNMQRSKMRGASSGKKTAGPQQKNLEPALPGRWGGRSAENPPSGSVRKTRKNKQKTPGNGDGGSTSEAPQPPRKKRARADPTVESEEAFKNRMEVKVKIPEELKPWLVEDWDLVTRQKQLFQLPAKKNVDAILEEYANCKKSQGNVDNKEYAVNEVVAGIKEYFNVMLGTQLLYKFERPQYAEILLAHPDAPMSQVYGAPHLLRLFVRIGAMLAYTPLDEKSLALLLGYLHDFLKYLAKNSASLFTASDYKVASAEYHRKAL [MORF4L2]; 52.1

###

Test system: HeLa Kyoto
Test: thermal stability score vs G1/S (z-score of summed log2 fold changes over temperatures); higher = more thermally stable than in G1/S
Test conditions: cell cycle stage: mitosis
Measurement type: thermal stability score

MAAALFVLLGFALLGTHGASGAAGFVQAPLSQQRWVGGSVELHCEAVGSPVPEIQWWFEGQGPNDTCSQLWDGARLDRVHIHATYHQHAASTISIDTLVEEDTGTYECRASNDPDRNHLTRAPRVKWVRAQAVVLVLEPGTVFTTVEDLGSKILLTCSLNDSATEVTGHRWLKGGVVLKEDALPGQKTEFKVDSDDQWGEYSCVFLPEPMGTANIQLHGPPRVKAVKSSEHINEGETAMLVCKSESVPPVTDWAWYKITDSEDKALMNGSESRFFVSSSQGRSELHIENLNMEADPGQYRCNGTSSKGSDQAIITLRVRSHLAALWPFLGIVAEVLVLVTIIFIYEKRRKPEDVLDDDDAGSAPLKSSGQHQNDKGKNVRQRNSS [BSG]; -2.75
MKLKLKNVFLAYFLVSIAGLLYALVQLGQPCDCLPPLRAAAEQLRQKDLRISQLQAELRRPPPAPAQPPEPEALPTIYVVTPTYARLVQKAELVRLSQTLSLVPRLHWLLVEDAEGPTPLVSGLLAASGLLFTHLVVLTPKAQRLREGEPGWVHPRGVEQRNKALDWLRGRGGAVGGEKDPPPPGTQGVVYFADDDNTYSRELFEEMRWTRGVSVWPVGLVGGLRFEGPQVQDGRVVGFHTAWEPSRPFPVDMAGFAVALPLLLDKPNAQFDSTAPRGHLESSLLSHLVDPKDLEPRAANCTRVLVWHTRTEKPKMKQEEQLQRQGRGSDPAIEV [B3GAT3]; -0.376
MAAAVVLAAGLRAARRAVAATGVRGGQVRGAAGVTDGNEVAKAQQATPGGAAPTIFSRILDKSLPADILYEDQQCLVFRDVAPQAPVHFLVIPKKPIPRISQAEEEDQQLLGHLLLVAKQTAKAEGLGDGYRLVINDGKLGAQSVYHLHIHVLGGRQLQWPPG [HINT2]; -2.12
MATASPAADGGRGRPWEGGLVSWPPAPPLTLPWTWMGPSWGQHPGHWGFPALTEPSASPAAGLGIFEVRRVLDASGCSMLAPLQTGAARFSSYLLSRARKVLGSHLFSPCGVPEFCSISTRKLAAHGFGASMAAMVSFPPQRYHYFLVLDFEATCDKPQIHPQEIIEFPILKLNGRTMEIESTFHMYVQPVVHPQLTPFCTELTGIIQAMVDGQPSLQQVLERVDEWMAKEGLLDPNVKSIFVTCGDWDLKVMLPGQCQYLGLPVADYFKQWINLKKAYSFAMGCWPKNGLLDMNKGLSLQHIGRPHSGIDDCKNIANIMKTLAYRGFIFKQTSKPF [ERI3]; -0.0416
MESPASSQPASMPQSKGKSKRKKDLRISCMSKPPAPNPTPPRNLDSRTFITIGDRNFEVEADDLVTISELGRGAYGVVEKVRHAQSGTIMAVKRIRATVNSQEQKRLLMDLDINMRTVDCFYTVTFYGALFREGDVWICMELMDTSLDKFYRKVLDKNMTIPEDILGEIAVSIVRALEHLHSKLSVIHRDVKPSNVLINKEGHVKMCDFGISGYLVDSVAKTMDAGCKPYMAPERINPELNQKGYNVKSDVWSLGITMIEMAILRFPYESWGTPFQQLKQVVEEPSPQLPADRFSPEFVDFTAQCLRKNPAERMSYLELMEHPFFTLHKTKKTDIAAFVKEILGEDS [MAP2K3]; 2.08
